# System: SNB-75
# ASSAY PROTOCOL: NCI tumour cell line growth inhibition, 48 h
Calls of active or inactive are those of the source. Rule as the data show it: active = GI50 up to about 1.1 µM and inactive = higher.
Property: GI50; scope: individual compounds
OBSERVABLE: GI50

CC(C)C(NC(=O)C(Cc1ccccc1)NC(=O)[C@H]1CCC[C@H]1NC(=O)C(N)Cc1ccc(O)cc1)C(N)=O (some centres undefined)	> 100 µM (inactive)
CSc1ccc(NC(=O)CCl)cc1	2.53 µM (inactive)
COc1ccccc1Cn1c2c(c3c(C(=O)NCCN(C)C)c(O)ccc31)C(=O)c1ccccc1C2=O	1.55 µM (inactive)
CCC1C(c2ccccc2O)c2cc3c(cc2OC1N1CCOCC1)OCO3 (centres undefined)	8.53 µM (inactive)

All values here come from ChEMBL document CHEMBL1201862.
